procedure details: Half life at 1 uM in the presence of 100 uM reduced glutathione in H2O-Acetonitrile (1:1)
Type: ADME
test settings: reduced glutathione solution in H2O-acetonitrile (1:1)
Parameter half-life at 1 µM: see the listing below.
experimental endpoint: half-life at 1 µM (h)

{"columns": ["chemical structure", "modifier sign", "measured"],
 "data": [
  ["COCCOc1cc2ncnc(NC3=CC(=O)C(OC(CF)CF)=CC3=O)c2cc1OC", "=", 11],
  ["COCCOc1cc2ncnc(NC3=CC(=O)C(Oc4ccccc4)=CC3=O)c2cc1OC", "<", 0.02],
  ["COCCOc1cc2ncnc(NC3=CC(=O)C(SC)=CC3=O)c2cc1OC", "=", 2],
  ["COCCOc1cc2ncnc(NC3=CC(=O)C(N4CCN(Cc5ccccc5)CC4)=CC3=O)c2cc1OC", "=", 73]
]}
